- System under test: UniProtKB P48147
- Sequence (P48147 whole entry): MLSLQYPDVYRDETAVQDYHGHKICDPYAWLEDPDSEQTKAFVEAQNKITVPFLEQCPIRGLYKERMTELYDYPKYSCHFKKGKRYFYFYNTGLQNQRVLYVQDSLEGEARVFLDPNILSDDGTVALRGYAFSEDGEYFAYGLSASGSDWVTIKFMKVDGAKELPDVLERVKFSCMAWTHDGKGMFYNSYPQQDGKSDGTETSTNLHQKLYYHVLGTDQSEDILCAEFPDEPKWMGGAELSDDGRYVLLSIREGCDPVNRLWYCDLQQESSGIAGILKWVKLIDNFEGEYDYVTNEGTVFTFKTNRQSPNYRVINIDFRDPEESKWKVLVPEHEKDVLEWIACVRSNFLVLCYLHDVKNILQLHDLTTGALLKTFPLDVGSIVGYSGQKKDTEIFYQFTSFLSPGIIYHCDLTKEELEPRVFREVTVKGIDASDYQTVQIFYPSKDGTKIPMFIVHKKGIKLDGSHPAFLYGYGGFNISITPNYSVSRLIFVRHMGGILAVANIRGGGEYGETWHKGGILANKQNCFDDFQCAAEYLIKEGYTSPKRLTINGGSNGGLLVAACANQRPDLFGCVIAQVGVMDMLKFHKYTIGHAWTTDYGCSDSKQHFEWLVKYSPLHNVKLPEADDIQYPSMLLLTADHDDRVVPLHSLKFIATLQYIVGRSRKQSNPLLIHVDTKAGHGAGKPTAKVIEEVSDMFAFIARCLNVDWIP
Readout kind: IC50

Worked cases, IC50 given:
In [3]: df
Out[3]:
                            molecule_smiles  readout_kind  observed
0  N#Cc1ccc(N2C[C@@H]3[C@H](C2)[C@H]3NCC(=O)N2C[C@@H](F)C[C@H]2C#N)cc1F          IC50   9.94 µM
1  N#Cc1c(F)cc(F)cc1N1C[C@@H]2[C@H](C1)[C@H]2NCC(=O)N1C[C@@H](F)C[C@H]1C#N          IC50    8.7 µM
2  N#Cc1cc(C(F)(F)F)ccc1N1C[C@@H]2[C@H](C1)[C@H]2NCC(=O)N1C[C@@H](F)C[C@H]1C#N          IC50  > 100 µM
3  N#Cc1ccc(N2C[C@@H]3[C@H](C2)[C@H]3NCC(=O)N2C[C@@H](F)C[C@H]2C#N)c(C(F)(F)F)c1          IC50    2.1 µM
4  N#Cc1c(N2C[C@@H]3[C@H](C2)[C@H]3NCC(=O)N2C[C@@H](F)C[C@H]2C#N)cccc1C(F)(F)F          IC50   > 10 µM

[Q] Enter IC50 (test system UniProtKB P48147) for `N#C[C@@H]1C[C@H](F)CN1C(=O)CN[C@H]1[C@@H]2CN(c3nc4ccccc4o3)C[C@@H]21`
[A] > 100 µM
